# Tested on: biotinyl-Trp-oxazolone
# measurement_protocol: self-aminoacylation, catalytic enhancement (BWO) (fold over background); higher = more active; k-Seq, kA / k0A0; sequences stand for … in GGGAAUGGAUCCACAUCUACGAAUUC…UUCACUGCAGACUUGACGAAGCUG
Fewer inactive variants are shown than the library holds.
// bucketize self-aminoacylation: lower bin: < 2; middle bin: ≥ 2 and < 4; upper bin: ≥ 4

Example cases with answers are listed next.
primary_sequence	tested_target	cat
CUACUUCAAACACUCCGUCUG [Fam1A.1 aminoacylation ribozyme variant]	biotinyl-Trp-oxazolone	lower bin
AUUACCCUGGUCCUCGAGCGA [Fam2.1 aminoacylation ribozyme variant]	biotinyl-Trp-oxazolone	lower bin
CCACACUUCAAGCAAUCGCGC [Fam1B.1 aminoacylation ribozyme variant]	biotinyl-Trp-oxazolone	middle bin

Incoming: Category of AUUCAUCAAGGUCAUCGGGUG [Fam2.2 aminoacylation ribozyme variant] :
Outgoing: upper bin

###

# Test system: biotinyl-Phe-oxazolone
# measurement_protocol: self-aminoacylation, catalytic enhancement (BFO) (fold over background); higher = more active; k-Seq, kA / k0A0; sequences stand for … in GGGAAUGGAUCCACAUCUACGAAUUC…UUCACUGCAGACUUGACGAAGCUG
This sample holds only a part of the variants without activity.
The entries below are paired with their reported self-aminoacylation.
// return just the number, without any unit appended

Worked examples, 2 sequences total:
primary_sequence	self-aminoacylation
AAGUUUCCUAAUAUUCGCAAG [Fam3.1 aminoacylation ribozyme variant]	0.549
AAGUUUGCUGAUAGUCACAAG [Fam3.1 aminoacylation ribozyme variant]	1.23

Incoming: Need self-aminoacylation, item UUUCACCUAGUUCAUCGGGUG [Fam2.2 aminoacylation ribozyme variant]
Outgoing: 18.6

Incoming: Item under review: AUUUAGCUAGGUCAUCGGGUG [Fam2.2 aminoacylation ribozyme variant] . Reported self-aminoacylation?
Outgoing: 50.1

Incoming: self-aminoacylation lookup needed for CUACUUUAAACAAUCGGUCUU [Fam1A.1 aminoacylation ribozyme variant] , thanks.
Outgoing: 0.805

Incoming: Could you tell me which self-aminoacylation is on file for AAGUUUGCCACUAGUCGCAAG [Fam3.1 aminoacylation ribozyme variant] ?
Outgoing: 0.709

Incoming: Name the recorded self-aminoacylation for CCACACUUCUUGCAAUCGGUC [Fam1B.1 aminoacylation ribozyme variant] .
Outgoing: 0.7

Incoming: Fill blank: measured self-aminoacylation of the sequence AUUCACGUAGGUUAUCGGGUG [Fam2.2 aminoacylation ribozyme variant] is ____.
Outgoing: 38.9

Incoming: Query (sequence): AUUCACCAAGGUAAUCGGGUG [Fam2.2 aminoacylation ribozyme variant] ; field requested: self-aminoacylation
Outgoing: 42.2

###

self-aminoacylation overview
# Test system: biotinyl-Val-oxazolone
# measurement_protocol: self-aminoacylation, catalytic enhancement (BVO) (fold over background); higher = more active; k-Seq, kA / k0A0; sequences stand for … in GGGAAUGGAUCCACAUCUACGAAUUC…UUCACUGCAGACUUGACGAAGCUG
This sample holds only a part of the variants without activity.
Form: value (number only, do not type unit).

primary_sequence	recorded_result
AUUCACCUCGGUCAUCUGGUG [Fam2.2 aminoacylation ribozyme variant]	2.16
CUUCGUCAAACAAUCGGUCUG [Fam1A.1 aminoacylation ribozyme variant]	1.55
AUUCCCCUAGGUCAUCGGGUG [Fam2.2 aminoacylation ribozyme variant]	14.9
AUUCAACUAGGUCAUCGGCUG [Fam2.2 aminoacylation ribozyme variant]	1.75
AGUACCCUGGUCAUCGAGUGU [Fam2.1 aminoacylation ribozyme variant]	5.27
CCACACUUCAAGUUAUCGGUC [Fam1B.1 aminoacylation ribozyme variant]	1.06
AUGACCGUGGUCAUCGAGUGA [Fam2.1 aminoacylation ribozyme variant]	3.22
AUUACCCUUGUCAUCGAGUAA [Fam2.1 aminoacylation ribozyme variant]	1.13

Incoming: Reported self-aminoacylation, sequence GUACUUCAAACAAUCGGUCUG [Fam1A.1 aminoacylation ribozyme variant] : ____
Outgoing: 1.42

Incoming: Given CUAAUUCAAACAAUCGGUCAG [Fam1A.1 aminoacylation ribozyme variant] , state its recorded self-aminoacylation.
Outgoing: 0.546

Incoming: Quick one: self-aminoacylation of CCACACUUCGCGCAAUCGGUC [Fam1B.1 aminoacylation ribozyme variant] ?
Outgoing: 2.51

Data origin, for the record: the supplement of paper PMC9233669
